Tested on: L1210 leukemia ip in BDF1 mice, survival T/C
Assay: NCI In Vivo Anticancer Drug Screen. Data for tumor model L1210 Leukemia (intraperitoneal) in B6D2F1 (BDF1) mice
Conditions: endpoint: mean survival time; dose: 400.0 mg/kg/injection; schedule: Q04DX003 (ip); vehicle: saline with Tween-80; higher = longer survival
Toxic doses and inconclusive results are not listed.

- Compound: "Cc1ccc2c(c1)=N/C(=N\\c1nc(O)c(O)[nH]1)N=2"
  T/C: "103 % of control"
- Compound: "CCCCCCC(=O)C1C(c2ccc(N(C)C)cc2)CC(=O)C(CCCCC)C1c1ccc(N(C)C)cc1 (stereo unspecified)"
  T/C: "92 % of control"
- Compound: "COc1ccc(C2=CC(O)CC(c3ccccc3)C2c2ccccc2)cc1 (stereo unspecified)"
  T/C: "91 % of control"
- Compound: "O=C(O)Cc1c[nH]c(=O)[nH]c1=O"
  T/C: "92 % of control"
- Compound: "CN(N)c1ncnc2c1ncn2C1OC(CO)C(O)C1O (stereo unspecified)"
  T/C: "95 % of control"
- Compound: "COC(=O)CCC(=O)/C=C1/Nc2ccccc2C1=O"
  T/C: "90 % of control"

====

Test system: L1210 leukemia ip in BDF1 mice, survival T/C
Test: NCI In Vivo Anticancer Drug Screen. Data for tumor model L1210 Leukemia (intraperitoneal) in B6D2F1 (BDF1) mice
Conditions: endpoint: mean survival time; dose: 100.0 mg/kg/injection; schedule: Q01DX001 (ip); vehicle: saline with Tween-80; higher = longer survival
Toxic doses and inconclusive results are not listed.
Reported metric: T/C

- Compound: "COc1ccc(SC(=O)N(C)C)cc1"
  Measurement target: "L1210 leukemia ip in BDF1 mice, survival T/C"
  Assay value: "98 % of control"
- Compound: "Nc1nc(N)c(-c2ccc(Cl)cc2)c(CCc2cccc(NC(=O)c3cccc(S(=O)(=O)F)c3)c2)n1"
  Measurement target: "L1210 leukemia ip in BDF1 mice, survival T/C"
  Assay value: "93 % of control"
- Compound: "O=C(O)C12CCC(CO)(CC1)CC2"
  Measurement target: "L1210 leukemia ip in BDF1 mice, survival T/C"
  Assay value: "100 % of control"
- Compound: "CCC1(O)C(=O)OCc2c1cc(C(=O)OC)n(C)c2=O (stereo not given)"
  Measurement target: "L1210 leukemia ip in BDF1 mice, survival T/C"
  Assay value: "97 % of control"
- Compound: "O=S1Cc2cc3ccccc3cc2C1"
  Measurement target: "L1210 leukemia ip in BDF1 mice, survival T/C"
  Assay value: "102 % of control"
- Compound: "C(=N/Nc1ccccn1)/c1cccnc1"
  Measurement target: "L1210 leukemia ip in BDF1 mice, survival T/C"
  Assay value: "112 % of control"
- Compound: "CCn1c(=S)[nH]c(/C=N/N(CCO)CCO)c(C)c1=O"
  Measurement target: "L1210 leukemia ip in BDF1 mice, survival T/C"
  Assay value: "103 % of control"
- Compound: "CC(=O)NC(c1ccccc1)C(NC(=O)c1ccccc1)c1ccccc1 (stereo not given)"
  Measurement target: "L1210 leukemia ip in BDF1 mice, survival T/C"
  Assay value: "92 % of control"
- Compound: "Cc1nc(N)[nH]c(=O)c1CCCNc1ccc(F)cc1"
  Measurement target: "L1210 leukemia ip in BDF1 mice, survival T/C"
  Assay value: "92 % of control"
- Compound: "CCOC(=O)C1C(=O)C(C(=O)Nc2ccccc2)C(=O)C(C(=O)OCC)C1c1ccc(OC(C)=O)cc1 (stereo not given)"
  Measurement target: "L1210 leukemia ip in BDF1 mice, survival T/C"
  Assay value: "100 % of control"
- Compound: "CC(=O)OCC1OC(Sc2ccc([N+](=O)[O-])cc2[N+](=O)[O-])C(OC(C)=O)C(OC(C)=O)C1OC(C)=O (stereo not given)"
  Measurement target: "L1210 leukemia ip in BDF1 mice, survival T/C"
  Assay value: "96 % of control"
- Compound: "CC(=O)OC1(C[N+](=O)[O-])CCCCC1"
  Measurement target: "L1210 leukemia ip in BDF1 mice, survival T/C"
  Assay value: "101 % of control"
- Compound: "CCOC(=O)c1ccc(NC(=O)Oc2ccc(-c3ccccc3)cc2)cc1"
  Measurement target: "L1210 leukemia ip in BDF1 mice, survival T/C"
  Assay value: "96 % of control"
- Compound: "Cc1[nH]cnc1C(c1ccccc1)c1ccccc1"
  Measurement target: "L1210 leukemia ip in BDF1 mice, survival T/C"
  Assay value: "108 % of control"
- Compound: "COc1ccc(/C=N/NC(=O)CCCCCCCCC(=O)N/N=C/c2ccc(OC)c(OC)c2)cc1OC"
  Measurement target: "L1210 leukemia ip in BDF1 mice, survival T/C"
  Assay value: "95 % of control"
- Compound: "O=C(Nc1ncccn1)c1ccc(Cl)cc1Cl"
  Measurement target: "L1210 leukemia ip in BDF1 mice, survival T/C"
  Assay value: "103 % of control"
- Compound: "Cc1nc(N)[nH]c(=O)c1N (tested in a mixture with another compound)"
  Measurement target: "L1210 leukemia ip in BDF1 mice, survival T/C"
  Assay value: "103 % of control"
- Compound: "CCC[n+]1c(C)oc2ccc(-c3ccccc3)cc21"
  Measurement target: "L1210 leukemia ip in BDF1 mice, survival T/C"
  Assay value: "94 % of control"
- Compound: "CCCCCCCCCCCCCCCC=C(C)C"
  Measurement target: "L1210 leukemia ip in BDF1 mice, survival T/C"
  Assay value: "101 % of control"
- Compound: "O=C(CCc1ccccc1)Nc1ccc(F)cc1"
  Measurement target: "L1210 leukemia ip in BDF1 mice, survival T/C"
  Assay value: "95 % of control"

Measured values drawn from PubChem BioAssay AID248 for this set.
